Listed next: entries and their corresponding pIC50.
TARGET_ENTITY: BCL-2/BAK (Homo sapiens)
Sequence (P10415 whole entry, species assumed): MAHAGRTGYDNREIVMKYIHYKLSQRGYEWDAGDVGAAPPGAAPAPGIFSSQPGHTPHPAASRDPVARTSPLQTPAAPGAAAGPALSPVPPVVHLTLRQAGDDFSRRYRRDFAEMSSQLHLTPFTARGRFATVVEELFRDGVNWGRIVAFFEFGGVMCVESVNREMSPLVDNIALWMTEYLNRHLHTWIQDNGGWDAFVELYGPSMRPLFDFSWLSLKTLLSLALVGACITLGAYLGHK
TEST_METHOD_NOTES: Screening on inhibitory activity for BCL-2/BAK binding (Cisbio HTRF kit)
Note on pIC50: it is the negative log10 of concentration, concentration in mol/L.

Value of measured pIC50 for the entry CC(=O)N1CCO[C@H](CNc2ccc(S(=O)(=O)NC(=O)c3ccc(N4CCN(CC5=C(c6ccc(C(F)(F)F)cc6Cl)CC(C)(C)CC5)CC4)cc3Oc3cnc4[nH]ccc4c3)cc2[N+](=O)[O-])C1 [Compound 65-1] : 8.82

// CC1(C)CCC(CN2CCN(c3ccc(C(=O)NS(=O)(=O)c4ccc(NC[C@@H]5CCCOC5)c([N+](=O)[O-])c4)c(Oc4cnc5[nH]ccc5c4)c3)CC2)=C(c2ccc(C(F)(F)F)cc2Cl)C1 [Compound 43-1] : pIC50 value = 8.74

CC1(C)CCC(CN2CCN(c3ccc(C(=O)NS(=O)(=O)c4ccc(NCC5CCCCO5)c([N+](=O)[O-])c4)c(Oc4cnc5[nH]ccc5c4)c3)CC2)=C(c2ccc(C(F)(F)F)cc2Cl)C1 (stereo not drawn) [Compound 14-1] has a reported pIC50 of 8.29

For this compound ( CC1(C)CCC(CN2CCN(c3ccc(C(=O)NS(=O)(=O)c4ccc(NC[C@H]5COCCO5)c([N+](=O)[O-])c4)c(Oc4cnc5[nH]ccc5c4)c3)CC2)=C(c2ccc(C(F)(F)F)cc2Cl)C1 [Compound 8-1] ), measured pIC50 is 8.55

Input COCC(=O)N1CCO[C@H](CNc2ccc(S(=O)(=O)NC(=O)c3ccc(N4CCN(CC5=C(c6ccc(C(F)(F)F)cc6Cl)CC(C)(C)CC5)CC4)cc3Oc3cnc4[nH]ccc4c3)cc2[N+](=O)[O-])C1 [Compound 11-1] . Output pIC50: 8.80

====

TEST_METHOD_NOTES: Pharmacokinetics in beagle dogs
Assay type: in vivo
PARTICULARS: male, dog, plasma, po, intragastric 2.5 mg/kg, read-out: T½ (converted)
EXPERIMENTAL_ENDPOINT: half-life (h)
Report the figure in h without appending any unit label.

The measured half-life associated with CC1(C)CCC(CN2CCN(c3ccc(C(=O)NS(=O)(=O)c4ccc(NC[C@H]5COCCO5)c([N+](=O)[O-])c4)c(Oc4cnc5[nH]ccc5c4)c3)CC2)=C(c2ccc(C(F)(F)F)cc2Cl)C1 reads 19.5

====

Measured pIC50 by item
TARGET_ENTITY: BCL-2/BAK (Homo sapiens)
Construct: purchased Cisbio
TEST_METHOD_NOTES: Screening on inhibitory activity for BCL-2/BAK binding (Cisbio HTRF kit)
Method: 1.1 Screening on Inhibitory Activity for BCL-2/BAK Binding 500 nM Tag1-BCL-2 protein stock solution and 20 μM Tag2-BAK protein stock solution were diluted to 5 nM and 120 nM respectively with dilution buffer in kit (model: BCL-2/BAK (BH3) BINDING ASSAY KITS, from Cisbio). […] The plate was read using a PE Envision multi-functional microplate reader (excitation: […], emission: 665 nm) and IC50 (shown in table 1) was calculated by four-parameter fitting.
pIC50 here: minus log base 10 of the concentration, concentration in moles per litre.

CN1CCC(CCNc2ccc(S(=O)(=O)NC(=O)c3ccc(N4CCN(CC5=C(c6ccc(C(F)(F)F)cc6Cl)CC(C)(C)CC5)CC4)cc3Oc3cnc4[nH]ccc4c3)cc2[N+](=O)[O-])CC1 [Compound 18-1] ... 8.57

What the record says about CC1(C)CCC(CN2CCN(c3ccc(C(=O)NS(=O)(=O)c4ccc(NC[C@H]5CCCOC5)c([N+](=O)[O-])c4)c(Oc4cnc5[nH]ccc5c4)c3)CC2)=C(c2ccc(C(F)(F)F)cc2Cl)C1 [Compound 42-1] : pIC50 is 8.55

Just so you know, measured pIC50 for CC(=O)N1CCO[C@@H](CNc2ccc(S(=O)(=O)NC(=O)c3ccc(N4CCN(CC5=C(c6ccc(C(F)(F)F)cc6Cl)CC(C)(C)CC5)CC4)cc3Oc3cnc4[nH]ccc4c3)cc2[N+](=O)[O-])C1 [Compound 61-1] came out at 8.82

The reported pIC50 of the molecule CC(C)C(=O)N1CCC(CNc2ccc(S(=O)(=O)NC(=O)c3ccc(N4CCN(CC5=C(c6ccc(C(F)(F)F)cc6Cl)CC(C)(C)CC5)CC4)cc3Oc3cnc4[nH]ccc4c3)cc2[N+](=O)[O-])CC1 [Compound 23-1] was 8.29

====

TARGET_ENTITY: BCL-2/BAK (Homo sapiens)
Construct: purchased Cisbio
TEST_METHOD_NOTES: Screening on inhibitory activity for BCL-2/BAK binding (Cisbio HTRF kit)
Method: 1.1 Screening on Inhibitory Activity for BCL-2/BAK Binding 500 nM Tag1-BCL-2 protein stock solution and 20 μM Tag2-BAK protein stock solution were diluted to 5 nM and 120 nM respectively with dilution buffer in kit (model: BCL-2/BAK (BH3) BINDING ASSAY KITS, from Cisbio). […] The plate was read using a PE Envision multi-functional microplate reader (excitation: […], emission: 665 nm) and IC50 (shown in table 1) was calculated by four-parameter fitting.
Parameter pIC50: see the listing below.
# pIC50: negative log10 of molar concentration; output just the value

Examples from the recorded data:
CC(C)C(=O)N1CCO[C@@H](CNc2ccc(S(=O)(=O)NC(=O)c3ccc(N4CCN(CC5=C(c6ccc(C(F)(F)F)cc6Cl)CC(C)(C)CC5)CC4)cc3Oc3cnc4[nH]ccc4c3)cc2[N+](=O)[O-])C1 ... 8.63
COCC(=O)N1CCCC(CNc2ccc(S(=O)(=O)NC(=O)c3ccc(N4CCN(CC5=C(c6ccc(C(F)(F)F)cc6Cl)CC(C)(C)CC5)CC4)cc3Oc3cnc4[nH]ccc4c3)cc2[N+](=O)[O-])C1 (stereo not shown) ... 8.63
CC1(C)CCC(CN2CCN(c3ccc(C(=O)NS(=O)(=O)c4ccc(NC[C@@H]5CN(S(C)(=O)=O)CCO5)c([N+](=O)[O-])c4)c(Oc4cnc5[nH]ccc5c4)c3)CC2)=C(c2ccc(C(F)(F)F)cc2Cl)C1 ... 9.22
CC1(C)CCC(CN2CCN(c3ccc(C(=O)NS(=O)(=O)c4ccc(NC[C@@H]5CCCO5)c([N+](=O)[O-])c4)c(Oc4cnc5[nH]ccc5c4)c3)CC2)=C(c2ccc(C(F)(F)F)cc2Cl)C1 ... 8.80
CC(C)C(=O)N1CCOC(CNc2ccc(S(=O)(=O)NC(=O)c3ccc(N4CCN(CC5=C(c6ccc(C(F)(F)F)cc6Cl)CC(C)(C)CC5)CC4)cc3Oc3cnc4[nH]ccc4c3)cc2[N+](=O)[O-])C1 (stereo not shown) ... 8.55
CC1(C)CCC(CN2CCN(c3ccc(C(=O)NS(=O)(=O)c4ccc(NC[C@H]5CN(S(C)(=O)=O)CCO5)c([N+](=O)[O-])c4)c(Oc4cnc5[nH]ccc5c4)c3)CC2)=C(c2ccc(C(F)(F)F)cc2Cl)C1 ... 8.64
CC1(C)CCC(CN2CCN(c3ccc(C(=O)NS(=O)(=O)c4ccc(NCC5CN(C(=O)C(C)(C)C)CCO5)c([N+](=O)[O-])c4)c(Oc4cnc5[nH]ccc5c4)c3)CC2)=C(c2ccc(C(F)(F)F)cc2Cl)C1 (stereo not shown) ... 8.59
CC1(C)CCC(CN2CCN(c3ccc(C(=O)NS(=O)(=O)c4ccc(NC[C@H]5CCOC5)c([N+](=O)[O-])c4)c(Oc4cnc5[nH]ccc5c4)c3)CC2)=C(c2ccc(C(F)(F)F)cc2Cl)C1 ... 8.79

Entry CC1(C)CCC(CN2CCN(c3ccc(C(=O)NS(=O)(=O)c4ccc(NCC5CCOCC5)c([N+](=O)[O-])c4)c(Oc4cnc5[nH]ccc5c4)c3)CC2)=C(c2ccc(Cl)cc2C(F)(F)F)C1 , pIC50 reported as 9.07

Reported pIC50 ( CCOC(=O)N1CCOC(CNc2ccc(S(=O)(=O)NC(=O)c3ccc(N4CCN(CC5=C(c6ccc(C(F)(F)F)cc6Cl)CC(C)(C)CC5)CC4)cc3Oc3cnc4[nH]ccc4c3)cc2[N+](=O)[O-])C1 (stereo not shown) ) = 8.78

pIC50 for COC(=O)N1CCOC(CNc2ccc(S(=O)(=O)NC(=O)c3ccc(N4CCN(CC5=C(c6ccc(C(F)(F)F)cc6Cl)CC(C)(C)CC5)CC4)cc3Oc3cnc4[nH]ccc4c3)cc2[N+](=O)[O-])C1 (stereo not shown) is 8.46

For reference, reported pIC50 for CC1(C)CCC(CN2CCN(c3ccc(C(=O)NS(=O)(=O)c4ccc(NCC5CCCOC5)c([N+](=O)[O-])c4)c(Oc4cnc5[nH]ccc5c4)c3)CC2)=C(c2ccc(C(F)(F)F)cc2Cl)C1 (stereo not shown) stands at 8.44

Record summary for CC(C)C(=O)N1CCO[C@H](CNc2ccc(S(=O)(=O)NC(=O)c3ccc(N4CCN(CC5=C(c6ccc(C(F)(F)F)cc6Cl)CC(C)(C)CC5)CC4)cc3Oc3cnc4[nH]ccc4c3)cc2[N+](=O)[O-])C1 : reported pIC50 = 8.59
